- System: T-47D (breast) human solid tumor cell line
- experimental_details: Antiproliferative SRB assay (HTS), T-47D
- Type: cell-based
- reported_conditions: T47D, 48 h
readout: GI50 (µM)
Answers are plain numbers, in µM.

Worked set:
compound	GI50 [µM]
CCCCCCCC[Se][C@@H]1[C@H](O)[C@@H](O)[C@H](O)[C@H]2COC(=O)N21 [Compound 9]	71
CCCCCCCCCCCC[Se][C@@H]1[C@H](O)[C@@H](O)[C@H](O)[C@H]2COC(=O)N21 [Compound 10]	21

// input: 3 compounds below; output: GI50 for each
1. CCCCCCCCCCCCS[C@@H]1[C@H](O)[C@@H](O)[C@H](O)[C@H]2COC(=O)N21 [Compound 14]
2. CCCCCCCCS[C@@H]1[C@H](O)[C@@H](O)[C@H](O)[C@H]2COC(=O)N21 [Compound 13]
3. CCCCCCCCCCCCN[C@@H]1[C@H](O)[C@@H](O)[C@H](O)[C@H]2COC(=O)N21 [Compound 12]

OUT:
[18, 95, 23]
